- TARGET_OR_SYSTEM: 5-HT2c (Homo sapiens)
- Construct: purchased Euroscreen/BioSignal Packard Inc
- Sequence (P28335 33-458): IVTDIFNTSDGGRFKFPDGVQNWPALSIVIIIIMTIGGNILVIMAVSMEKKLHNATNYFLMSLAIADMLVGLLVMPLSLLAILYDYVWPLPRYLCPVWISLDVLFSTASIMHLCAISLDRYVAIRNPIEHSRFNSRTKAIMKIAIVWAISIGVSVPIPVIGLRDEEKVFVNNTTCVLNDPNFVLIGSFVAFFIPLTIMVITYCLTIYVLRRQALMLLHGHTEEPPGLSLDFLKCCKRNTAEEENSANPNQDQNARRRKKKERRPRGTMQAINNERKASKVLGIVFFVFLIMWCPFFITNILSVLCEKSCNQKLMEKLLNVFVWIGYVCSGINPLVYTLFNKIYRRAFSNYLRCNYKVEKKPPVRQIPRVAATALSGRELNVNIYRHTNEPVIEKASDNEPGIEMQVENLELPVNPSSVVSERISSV
- ASSAY_COMMENT: Radioligand binding, 5-HT2c ([3H]Mesulergine)
- EXPERIMENTAL_SETUP: Table 4; [3H]Mesulergine 1 nM; read-out: Binding affinity, IC50 (nM) 5-HT2c
MEASUREMENT_LABEL: IC50 (nM)
Give just the numeric value; nM need not be written.

Some solved entries appear below for comparison.
>  <MOLECULE>
COc1ccc(C2(C)C(=O)c3c(N4CCNCC4)cc(Cl)cc3N(Cc3ccccc3Br)C2=O)cc1 (stereo not shown)

>  <IC50 [nM]>
7720

$$$$
>  <MOLECULE>
CC1(c2ccc(O)cc2)C(=O)c2c(N3CCNCC3)cc(Cl)cc2N(Cc2cccc([N+](=O)[O-])c2)C1=O (stereo not shown)

>  <IC50 [nM]>
6090

$$$$
>  <MOLECULE>
CN1CCN(c2cc(Cl)cc3c2C(=O)C(C)(c2ccc(OCc4ccccc4)c(Br)c2)C(=O)N3Cc2ccccc2)CC1 (stereo not shown)

>  <IC50 [nM]>
1290

$$$$

API: the following record is the query input.
## Task Name the recorded IC50 for CC1(c2ccccc2)C(=O)c2c(N3CCNCC3)cc(Cl)cc2N(Cc2ccccc2)C1=O (stereo not shown) .
## Result 1830
